- SUBJECT_OF_TEST: Aminopeptidase N (Plasmodium falciparum FcB1/Columbia, UniProt O96935)
- Sequence (O96935 whole entry): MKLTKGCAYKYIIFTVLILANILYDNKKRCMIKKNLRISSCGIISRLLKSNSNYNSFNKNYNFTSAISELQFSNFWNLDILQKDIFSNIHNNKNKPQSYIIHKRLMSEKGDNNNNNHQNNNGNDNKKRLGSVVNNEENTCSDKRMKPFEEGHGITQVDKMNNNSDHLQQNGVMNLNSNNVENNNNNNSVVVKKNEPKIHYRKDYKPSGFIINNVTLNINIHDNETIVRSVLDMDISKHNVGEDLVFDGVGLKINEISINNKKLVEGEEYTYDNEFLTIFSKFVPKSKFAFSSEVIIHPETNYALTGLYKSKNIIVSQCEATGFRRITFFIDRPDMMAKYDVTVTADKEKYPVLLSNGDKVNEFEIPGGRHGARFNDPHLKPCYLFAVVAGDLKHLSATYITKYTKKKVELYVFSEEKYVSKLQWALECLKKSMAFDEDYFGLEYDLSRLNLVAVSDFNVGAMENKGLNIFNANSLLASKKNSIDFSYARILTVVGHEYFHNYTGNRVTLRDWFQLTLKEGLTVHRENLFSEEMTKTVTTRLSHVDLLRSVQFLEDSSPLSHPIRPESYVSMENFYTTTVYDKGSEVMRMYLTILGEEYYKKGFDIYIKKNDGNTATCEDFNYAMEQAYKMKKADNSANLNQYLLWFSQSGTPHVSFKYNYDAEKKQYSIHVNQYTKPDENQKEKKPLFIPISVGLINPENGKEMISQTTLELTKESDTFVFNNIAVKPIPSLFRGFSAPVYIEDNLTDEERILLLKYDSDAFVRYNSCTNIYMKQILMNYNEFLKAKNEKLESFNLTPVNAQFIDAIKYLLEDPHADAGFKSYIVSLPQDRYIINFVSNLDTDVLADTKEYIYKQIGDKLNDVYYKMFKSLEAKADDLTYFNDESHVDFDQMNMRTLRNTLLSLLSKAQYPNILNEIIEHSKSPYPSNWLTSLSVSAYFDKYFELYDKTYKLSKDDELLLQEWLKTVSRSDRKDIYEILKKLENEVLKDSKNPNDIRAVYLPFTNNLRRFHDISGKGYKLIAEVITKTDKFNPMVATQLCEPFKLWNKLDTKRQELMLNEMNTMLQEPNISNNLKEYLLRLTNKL
- MEASUREMENT_NOTES: Inhibition of Plasmodium falciparum recombinant M1-aminopeptidase expressed in Escherichia coli after 40 mins uisng fluorogenic substrate L-Leucyl-7-amido-40-methylcoumarin by fluorescence spectrophotometry
- CONDITION_SUMMARY: read-out: Ki
pKi for assorted compounds
Would you please state pKi, meaning minus log10 of the concentration in mol/L, as a bare number?

Past entries and their recorded results:
{"columns": ["CHEMICAL_SMILES", "pKi"],
 "data": [
  ["CC(C)C[C@H](NC(=O)[C@@H](O)[C@H](N)Cc1ccc2ccccc2c1)C(=O)O", 5.52],
  ["CCCC[C@@H](N)[C@H](O)C(=O)N[C@@H](CC(C)C)C(=O)O", 5.28],
  ["N[C@H](Cc1ccccc1)[C@H](O)C(=O)N[C@@H](CCCCNC(=O)OCc1ccccc1)C(=O)O", 5.84]
]}

Now consider a different compound.
*Q* Which pKi is reported with Aminopeptidase N (Plasmodium falciparum FcB1/Columbia, UniProt O96935) for this entry: CCCC[C@H](NC(=O)[C@@H](O)[C@H](N)Cc1ccccc1)C(=O)O ?
*A* 6.05
